Origin of measurements: the supplement of paper PMC10567573

B1: DCAF4 (parent)
chain: DSHILLCLMGLAETPGCATLLPAS

variants of: B1; assay: protein stability index of a GFP-peptide fusion (GPS, HEK-293T) (PSI 1-6); higher = more stable; conditions: c terminus: a fixed tail appended;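 note: lentivirally expressed fusions sorted by FACS into six bins by GFP to DsRed ratio, PSI derived from sequencing read proportions per bin multiplied by bin number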
Task for the reader: assign each of the following variants its reported protein stability index.
# output: bare number, no unit

Q. Data request, read-out protein stability index, for DSHILLCLMGLAETPGAATLLPAS
A. 2.98

Q. Any idea what its protein stability index is? The variant is DSHILLCLMGLAETPGCAKLLPAS
A. 3.24

Q. Reported protein stability index, variant DSHILLCLMGLAETMGCATLLPAS : ____
A. 2.44

Q. // lookup protein stability index for DSHILLCLMGLAETDGCATLLPAS
A. 2.56

Q. If you can, please state the reported protein stability index value of DSHWLLCLMGLAETPGCATLLPAS .
A. 2.97

Q. Look up protein stability index for this variant: DSHILLCLMGLAETPGCATLNPAS
A. 3.01

Q. # query: protein stability index of entry DSHILLMLMGLAETPGCATLLPAS
A. 2.11

Q. Item under review: DSHILLCLNGLAETPGCATLLPAS . Reported protein stability index?
A. 1.6

Q. // query protein stability index value for entry DSHILLCPMGLAETPGCATLLPAS
A. 2.5

Q. Recorded protein stability index for DSHILLCLMGLAETPGCRTLLPAS , please?
A. 3.11

Q. # get_value(readout='protein stability index', item= DSHILLCLWGLAETPGCATLLPAS )
A. 4.64

Q. Using the record for DSHIELCLMGLAETPGCATLLPAS , report its protein stability index.
A. 1.78

Q. Please look up its protein stability index: DSHILLCLMILAETPGCATLLPAS
A. 3.16

Q. Suppose we examine the variant DSHILLCNMGLAETPGCATLLPAS ; what protein stability index value has been reported?
A. 2.58
